- target-or-test-system: AGTR1 (Homo sapiens)
- Construct: host or cells: Pathunter CHO-K1 AGTR1 β-arrestin cell line (CHO-K1)
- assay-text: DiscoveRx β-arrestin2 recruitment assay (enzyme complementation, Pathunter CHO-K1 AGTR1 β-arrestin cell line)
- Assay type: cell-based
- run-parameters: DiscoveRx β-arrestin2 recruitment
Field: DiscoveRx β-arrestin2 Ymax (%). Provide a value for each of the compounds that follow.
Numbers only, in %.

{"compound": "CCCCC(=O)N(Cc1ccc(-c2cc(Oc3cccc(OC(F)(F)F)c3)ccc2-c2nn[nH]n2)cc1)[C@H](C(=O)O)C(C)C", "DiscoveRx β-arrestin2 Ymax (%)": 26.4}
{"compound": "CCCCC(=O)N(Cc1ccc(-c2cc(Nc3ccccc3)ccc2-c2nn[nH]n2)cc1)[C@H](C(=O)O)C(C)C", "DiscoveRx β-arrestin2 Ymax (%)": 17.8}
{"compound": "CCCCC(=O)N(Cc1ccc(-c2cc(-c3ccccc3)ccc2-c2nn[nH]n2)cn1)[C@H](C(=O)O)C(C)C", "DiscoveRx β-arrestin2 Ymax (%)": 26.0}

# return DiscoveRx β-arrestin2 Ymax (%) for each item in the list
1. CCCCC(=O)N(Cc1ccc(-c2cc(N3CCCC(C)C3)ccc2-c2nn[nH]n2)cc1)[C@H](C(=O)O)C(C)C (stereo partly shown)
2. CCCCC(=O)N(Cc1ccc(-c2cc(-c3ccccc3)ccc2-c2noc(=O)[nH]2)nc1)[C@H](C(=O)O)C(C)C [Example 434, 2,2,2-trifluoroacetate]
3. CCCCC1=NC2(CCCC2)C(=O)N1Cc1ccc(-c2cc(Oc3cc(C)ccn3)ccc2-c2nn[nH]n2)cc1
4. CCCC(=O)N(Cc1ccc(-c2cc(-c3ccccc3)ccc2-c2nn[nH]n2)nc1)[C@H](C(=O)O)C(C)C
5. CCCCC(=O)N(Cc1ccc(-c2cc(Oc3cccnc3)ccc2-c2nn[nH]n2)cc1)[C@H](C(=O)O)C(C)C

A)
20.8
40.9
14.4
42.9
31.2

# return DiscoveRx β-arrestin2 Ymax (%) for each item in the list
1. CCCCC(=O)N(Cc1ccc(-c2cc(N3CC(C)(C)c4ccccc43)ccc2-c2nn[nH]n2)cc1)[C@H](C(=O)O)C(C)C
2. CCCCC1=NC2(CCCC2)C(=O)N1Cc1ccc(-c2cc(-c3ccccc3)ccc2-c2noc(=O)[nH]2)cn1
3. CCCCC(=O)N(Cc1ccc(-c2cc(N3CCC(C)CC3)ccc2-c2nn[nH]n2)cc1)[C@H](C(=O)O)C(C)C

A)
23.1
59.5
35.0

# return DiscoveRx β-arrestin2 Ymax (%) for each item in the list
1. CC(C)CCC(=O)N(Cc1ccc(-c2cc(-c3ccccc3)ccc2-c2nn[nH]n2)nc1)[C@H](C(=O)O)C(C)C
2. CCCCC(=O)N(Cc1ccc(-c2cc(-c3cc(C)ccn3)ccc2-c2nn[nH]n2)cc1)[C@H](C(=O)O)C(C)C
3. CCCCC(=O)N(Cc1ccc(-c2cc(-c3ccccn3)ccc2-c2nn[nH]n2)cc1)[C@H](C(=O)O)C(C)C

A)
[49.6, 61.2, 36.5]

---

Field: EC50. Provide a value for each of the compounds that follow.
- target-or-test-system: AGTR1 (Homo sapiens, UniProt P30556)
- Construct: host or cells: Pathunter CHO-K1 AGTR1 β-arrestin cell line (CHO-K1)
- Sequence (P30556 whole entry): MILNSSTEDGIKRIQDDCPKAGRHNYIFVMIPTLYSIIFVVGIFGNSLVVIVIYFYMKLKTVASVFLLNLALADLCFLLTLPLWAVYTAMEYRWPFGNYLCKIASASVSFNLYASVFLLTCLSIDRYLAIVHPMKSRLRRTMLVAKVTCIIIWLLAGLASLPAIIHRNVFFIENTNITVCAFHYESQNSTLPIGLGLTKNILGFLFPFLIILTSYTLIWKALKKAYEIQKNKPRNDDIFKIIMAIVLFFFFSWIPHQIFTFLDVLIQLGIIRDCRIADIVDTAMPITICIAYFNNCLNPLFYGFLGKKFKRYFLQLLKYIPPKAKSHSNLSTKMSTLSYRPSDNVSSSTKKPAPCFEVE
- assay-text: DiscoveRx IP1 accumulation assay (HTRF), agonist mode, Pathunter CHO-K1 AGTR1 β-arrestin cell line
- Format: cell-based
- run-parameters: read-out: IP-1 EC50
Numbers only, in nM.

Some entries whose results are on file:
{"compound": "CCc1nc2c(C)cc(C)nc2n1Cc1ccc(-c2cc(-c3ccccc3)ccc2-c2n[nH]c(=S)o2)cc1 [Example 246]", "EC50 [nM]": 281}
{"compound": "CCc1nc2c(C)cc(C)nc2n1Cc1ncc(-c2cc(-c3ccccc3)ccc2-c2nnn[nH]2)cn1 [Example 190]", "EC50 [nM]": 485}
{"compound": "CCc1nc2c(C)cc(C)nc2n1Cc1ccc(-c2cc(-c3cn(CCF)nn3)ccc2-c2nnn[nH]2)cc1 [Example 239]", "EC50 [nM]": 30.7}
{"compound": "CCCn1cc(-c2ccc(-c3nnn[nH]3)c(-c3ccc(Cn4c(CC)nc5c(C)cc(C)nc54)cc3)c2)nn1 [Example 236]", "EC50 [nM]": 48.2}
{"compound": "CCCCC1=NC2(CCCC2)C(=O)N1Cc1ccc(-c2cc(N3CCC(C)CC3)ccc2-c2nn[nH]n2)cc1 [Example 100]", "EC50 [nM]": 49.9}

# return EC50 for each item in the list
1. CCc1nc2c(C)cc(C)nc2n1Cc1ccc(-c2cc(-c3ccccc3F)ccc2-c2nn[nH]n2)cc1 [Example 19]
2. CCc1nc2c(C)cc(C)nc2n1Cc1ccc(-c2cc(N3CCC(OC)CC3)ccc2-c2nn[nH]n2)cc1 [Example 87]
3. CCc1nc2c(C)cc(C)nc2n1Cc1ccc(-c2cc(-c3cn(CC(C)C)nn3)ccc2-c2nnn[nH]2)cc1 [Example 240]
4. CCc1nc2c(C)cc(C)nc2n1Cc1ccc(-c2cc(-c3cc(C)cc(C)c3)ccc2C(=O)O)cc1 [Example 181]
5. CCc1nc2c(C)cc(C)nc2n1Cc1ccc(-c2cc(-n3cc(C(C)C)nn3)ccc2-c2nnn[nH]2)cc1 [Example 227]

A)
1. 27.4
2. 42
3. 122
4. 78.4
5. 268

# return EC50 for each item in the list
1. CCc1nc2c(C)cc(C)nc2n1Cc1ccc(-c2cc(C(=O)c3ccccc3)ccc2-c2nnn[nH]2)cc1 [Example 210]
2. CCc1nc2c(C)cc(C)nc2n1Cc1ccc(-c2cc(Oc3ccccc3)cc(C)c2-c2nnn[nH]2)cc1 [Example 211]
3. CCc1nc2c(C)cc(C)nc2n1Cc1ccc(-c2cc(Oc3ccc(F)cc3F)ccc2-c2nnn[nH]2)cc1 [Example 208]

A)
1. 82.7
2. 235
3. 106
